# assayed_target: Protease (Human immunodeficiency virus 1)
# assay_procedure: Inhibition of HIV1 protease at 50 uM relative to control
measured_property: inhibition (%)

Cc1cn([C@H]2C[C@H](n3cc(CNCc4cc5ccccc5oc4=O)nn3)[C@@H](CO)O2)c(=O)[nH]c1=O	61
Cc1cn([C@H]2C[C@H](n3cc(CNCc4cc5cc(Br)ccc5oc4=O)nn3)[C@@H](CO)O2)c(=O)[nH]c1=O	57
COc1cccc2cc(CN(Cc3ccccc3)C(=O)CNCc3cn([C@H]4C[C@H](n5cc(C)c(=O)[nH]c5=O)O[C@@H]4CO)nn3)c(=O)oc12	60
COc1cccc2cc(CNCc3cn([C@H]4C[C@H](n5cc(C)c(=O)[nH]c5=O)O[C@@H]4CO)nn3)c(=O)oc12	64
Cc1cn([C@H]2C[C@H](n3cc(CNCC(=O)N(Cc4ccccc4)Cc4cc5ccccc5oc4=O)nn3)[C@@H](CO)O2)c(=O)[nH]c1=O	52
Cc1cn([C@H]2C[C@H](n3cc(CNCc4cc5cc(Cl)ccc5oc4=O)nn3)[C@@H](CO)O2)c(=O)[nH]c1=O	56
Cc1cn([C@H]2C[C@H](n3cc(CNCC(=O)N(Cc4ccccc4)Cc4cc5cc(Cl)ccc5oc4=O)nn3)[C@@H](CO)O2)c(=O)[nH]c1=O	58
Cc1cn([C@H]2C[C@H](n3cc(CNCC(=O)N(Cc4ccccc4)Cc4cc5cc(Br)ccc5oc4=O)nn3)[C@@H](CO)O2)c(=O)[nH]c1=O	52
CC(C)c1nc(CN(C)C(=O)N[C@H](C(=O)N[C@@H](Cc2ccccc2)C[C@H](O)[C@H](Cc2ccccc2)NC(=O)OCc2cncs2)C(C)C)cs1	72
CCOc1cccc2cc(CN(Cc3ccccc3)C(=O)CNCc3cn([C@H]4C[C@H](n5cc(C)c(=O)[nH]c5=O)O[C@@H]4CO)nn3)c(=O)oc12	58
CCOc1cccc2cc(CNCc3cn([C@H]4C[C@H](n5cc(C)c(=O)[nH]c5=O)O[C@@H]4CO)nn3)c(=O)oc12	62

---

# assayed_target: Human immunodeficiency virus type 1 reverse transcriptase (Human immunodeficiency virus 1, UniProt Q72547)
measured_property: IC50 (µM)

COc1cccc2cc(CN(Cc3ccccc3)C(=O)CNCc3cn([C@H]4C[C@H](n5cc(C)c(=O)[nH]c5=O)O[C@@H]4CO)nn3)c(=O)oc12	2.88

(P) Cc1cn([C@H]2C[C@H](n3cc(CNCC(=O)N(Cc4ccccc4)Cc4cc5ccccc5oc4=O)nn3)[C@@H](CO)O2)c(=O)[nH]c1=O
(Q) Cc1cn([C@H]2C[C@H](n3cc(CNCc4cc5cc(Cl)ccc5oc4=O)nn3)[C@@H](CO)O2)c(=O)[nH]c1=O
Exercise: // which entry has the larger IC50 value, P or Q ? Returns: label corresponding to the selected item.
Key: Q

---

# assayed_target: Human immunodeficiency virus type 1 reverse transcriptase (Human immunodeficiency virus 1, UniProt Q72547)
measured_property: IC50 (µM)

Cc1cn([C@H]2C[C@H](n3cc(CNCc4cc5cc(Br)ccc5oc4=O)nn3)[C@@H](CO)O2)c(=O)[nH]c1=O	6.1
Cc1cn([C@H]2C[C@H](n3cc(CNCC(=O)N(Cc4ccccc4)Cc4cc5cc(Br)ccc5oc4=O)nn3)[C@@H](CO)O2)c(=O)[nH]c1=O	4.24
CCOc1cccc2cc(CN(Cc3ccccc3)C(=O)CNCc3cn([C@H]4C[C@H](n5cc(C)c(=O)[nH]c5=O)O[C@@H]4CO)nn3)c(=O)oc12	2.86

(P) Cc1cn([C@H]2C[C@H](n3cc(CNCC(=O)N(Cc4ccccc4)Cc4cc5cc(Cl)ccc5oc4=O)nn3)[C@@H](CO)O2)c(=O)[nH]c1=O
(Q) CCOc1cccc2cc(CNCc3cn([C@H]4C[C@H](n5cc(C)c(=O)[nH]c5=O)O[C@@H]4CO)nn3)c(=O)oc12
(R) Cc1cn([C@H]2C[C@H](n3cc(CNCc4cc5ccccc5oc4=O)nn3)[C@@H](CO)O2)c(=O)[nH]c1=O
Exercise: Given 3 compounds, produce a descending ranking by IC50. In your reply, arrange the labels in the requested order.
Key: Q, R, P
(Q: 114 µM, R: 5.59 µM, P: 3.69 µM)
